Reference for the values: patent US20220378931A1

TGT: T1, dog serum albumin (dog, UniProt P49822 25-608)
T1 construct: bought protein, amine-coupled to a CM5 chip; also called Dog SA
METHOD_SUMMARY: SPR (Biacore 8K), albumin immobilised, 25 C, 1:1 kinetics
QUANTITY_MEASURED: kon (M⁻¹ s⁻¹)
Answers are plain numbers, in M⁻¹ s⁻¹.

Worked set:
BINDER | QUANTITY_MEASURED | OUTPUT_UNIT | VALUE_REPORTED
INS Analog 27 (other, single-chain insulin B-L2-A-L1-VHH fusion; also called Ex. 27) FVSQHLCGSHLVEALRLVCGERGFFYTPKTGGGGGGGIVEQCCHSICSLYQLENYCGGGGGQGGGGQGGGGQGGGGQGGGGQEVQLLESGGGLVQPGGSLRLSCAASGRYIDETAVAWFRQAPGKEREFVAGIGGGVDITYYADSVKGRFTISRDNSKNTLYLQMNSLRPEDTAVYYCAARPGRPLITSKVADLYPYWGQGTLVTVSSPP | kon | M⁻¹ s⁻¹ | 180000
INS Analog 29 (other, single-chain insulin B-L2-A-L1-VHH fusion; also called Ex. 29) FVSQHLCGSHLVEALRLVCGERGFHYTPKTGGGGGGGIVEQCCHSICSLYQLENYCGGGGGQGGGGQGGGGQGGGGQGGGGQEVQLLESGGGLVQPGGSLRLSCAASGRYIDETAVAWFRQAPGKEREFVAGIGGGVDITYYADSVKGRFTISRDNSKNTLYLQMNSLRPEDTAVYYCAARPGRPLITSKVADLYPYWGQGTLVTVSSPP | kon | M⁻¹ s⁻¹ | 190000

Then this binder:
Please look up its kon: INS Analog 23 (other, single-chain insulin B-L2-A-L1-VHH fusion; also called Ex. 23) FVSQHLCGSHLVEALHLVCGERGFHYTPKTGGGGGGGIVEQCCHSICSLEQLENYCGGGGGQGGGGQGGGGQGGGGQGGGGQEVQLLESGGGLVQPGGSLRLSCAASGRYIDETAVAWFRQAPGKEREFVAGIGGGVDITYYADSVKGRFTISRDNSKNTLYLQMNSLRPEDTAVYYCAARPGRPLITSKVADLYPYWGQGTLVTVSSPP
140000
